Target: methionyl-tRNA synthetase (Trypanosoma brucei brucei)
Experiment: T. brucei MetRS inhibitors, orthogonal readout, late-stage follow-up, orthogonal assay for T. brucei MetRS inhibitor project, biochemical, fluorescence polarization, dose response, round 1 (AID 743154)
Calls of active or inactive are those of the source. The rule behind the calls is not given here.
Outcomes: 1 (yes) = active, 0 (no) = inactive

>>> class_label("COc1ccccc1NC(=O)Cn1cc(C(=O)C(=O)N2CCOCC2)c2ccccc21")
"0 (no)"
>>> class_label("Cc1ccc(C(=O)NCCc2nc3ccccc3[nH]2)cc1[N+](=O)[O-]")
"1 (yes)"
>>> class_label("Cc1cc2cc(C(=O)N3CCCC(c4nc5ccccc5[nH]4)C3)ccc2o1 (stereo not given)")
"0 (no)"
>>> class_label("CC(=O)N(CCc1ccccc1)C1CC(=O)N(c2ccc(Br)cc2)C1=O (stereo not given)")
"0 (no)"
>>> class_label("O=C(CSc1nnc2c(n1)[nH]c1ccc(Br)cc12)NCc1ccccc1")
"1 (yes)"

----------
Target: methionyl-tRNA synthetase (Trypanosoma brucei brucei)
Test: T. brucei MetRS inhibitors, orthogonal readout, late-stage follow-up, orthogonal assay for T. brucei MetRS inhibitor project, biochemical, fluorescence polarization, dose response, round 1 (AID 743154)
The source made the active and inactive calls. No rule for the calls is given here.
Classes used: y (active), n (inactive)

>>> class_label("O=C(NCCc1nc2ccccc2[nH]1)c1ccc(Cl)cc1")
"y"
>>> class_label("O=C(Cn1cc(C(=O)c2ccco2)c2ccccc21)Nc1cccc(C(F)(F)F)c1")
"y"
>>> class_label("O=C(Cn1cc(C(=O)C(=O)N2CCCC2)c2ccccc21)Nc1ccccc1")
"n"
>>> class_label("O=C1CC(NCCc2ccccc2)C(=O)N1c1ccc(Br)cc1 (configuration not stated)")
"n"
>>> class_label("CCC(=O)c1cn(CC(=O)Nc2cccc(C(F)(F)F)c2)c2ccccc12")
"n"
>>> class_label("COc1ccc(CCN(C(=O)c2cccc(F)c2)C2CC(=O)N(c3ccc(Br)cc3)C2=O)cc1 (configuration not stated)")
"n"
>>> class_label("CCN(CC)C(=O)C(=O)c1cn(CC(=O)Nc2cccc(OC)c2)c2ccccc12")
"y"
>>> class_label("CCN(CC)C(=O)C(=O)c1cn(CC(=O)Nc2ccccc2OC)c2ccccc12")
"n"
>>> class_label("O=C(Cn1cc(C(=O)C2CC2)c2ccccc21)Nc1cccc(C(F)(F)F)c1")
"n"
>>> class_label("O=C(NCCc1nc2ccccc2[nH]1)c1c(F)cccc1F")
"n"
>>> class_label("CC(=O)c1cn(CC(=O)Nc2cccc(C(F)(F)F)c2)c2ccccc12")
"n"
>>> class_label("O=C(NCCc1nc2ccccc2[nH]1)c1ccc(Cl)cc1Cl")
"y"
>>> class_label("CC(C)c1nc2ccc(C(=O)N(C)CCc3nc4ccc(F)cc4[nH]3)cc2o1")
"n"
>>> class_label("COc1cccc(NC(=O)C2CC(=O)n3c(nc4ccccc43)N2)c1 (configuration not stated)")
"n"
>>> class_label("CCN(C(=O)Cn1cc(C(=O)C(=O)N2CCOCC2)c2ccccc21)c1ccccc1")
"n"
>>> class_label("COc1ccc(CCN(C(=S)Nc2ccccc2)C2CC(=O)N(c3ccc(Cl)cc3)C2=O)cc1 (configuration not stated)")
"y"
>>> class_label("Cc1ccc2[nH]c3nc(SCC(=O)Nc4ccc(C(F)(F)F)cc4)nnc3c2c1")
"n"
>>> class_label("O=C(Cn1cc(C(=O)c2ccccc2)c2ccccc21)Nc1cccc(C(F)(F)F)c1")
"n"
>>> class_label("CCN(CC)C(=O)C(=O)c1cn(CC(=O)Nc2cccc(C(F)(F)F)c2)c2ccccc12")
"y"
>>> class_label("CC1Cc2ccccc2N1C(=O)Cn1cc(C(=O)C(=O)N2CCOCC2)c2ccccc21 (configuration not stated)")
"n"
>>> class_label("Cc1cccc(NC(=O)C2CC(=O)n3c(nc4ccccc43)N2)c1 (configuration not stated)")
"n"
>>> class_label("COCCc1nc2ccc(C(=O)NCCc3nc4ccc(OC)cc4[nH]3)cc2o1")
"n"
>>> class_label("O=C(C(=O)N1CCOCC1)c1cn(CC(=O)N2CCCc3ccccc32)c2ccccc12")
"n"
>>> class_label("CCN(CCc1nc2ccc(C)cc2[nH]1)C(=O)c1ccc2ncccc2c1")
"n"
>>> class_label("CCN(CC)C(=O)C(=O)c1cn(CC(=O)N(CC)c2ccccc2)c2ccccc12")
"n"
>>> class_label("O=C(Cn1cc(C(=O)C(=O)N2CCOCC2)c2ccccc21)NCC1CCCO1 (configuration not stated)")
"n"
>>> class_label("Cc1cccc2[nH]c(C3CCCN(C(=O)c4cccc5cccnc45)C3)nc12 (configuration not stated)")
"n"
>>> class_label("Cc1ccc(CNC(=O)CSc2nnc3c(n2)[nH]c2ccc(C)cc23)cc1")
"n"
>>> class_label("CNC(=S)N(CCc1ccccc1)C1CC(=O)N(c2ccc(Br)cc2)C1=O (configuration not stated)")
"y"
>>> class_label("CCCCn1c(CCNC(=O)c2ccc(F)cc2)nc2ccccc21")
"n"
>>> class_label("O=C(CSC1CC(=O)N(c2cccc(Cl)c2)C1=O)Nc1ccc(Br)cc1 (configuration not stated)")
"n"
>>> class_label("Cc1cccc2[nH]c(CCN(C)C(=O)c3cccc(C4CCNC4)c3)nc12 (configuration not stated)")
"n"
>>> class_label("COc1ccccc1NC(=O)CSc1nnc2c(n1)[nH]c1ccc(C)cc12")
"n"
>>> class_label("CC(=O)N(CCc1ccccc1)C1CC(=O)N(c2ccc(Cl)cc2)C1=O (configuration not stated)")
"n"
>>> class_label("CCc1ccc2c(c1)c1nnc(SCC(=O)Nc3ccc4c(c3)OCO4)nc1n2C")
"n"
>>> class_label("CCN(CC)C(=O)C(=O)c1cn(CC(=O)N2CCCc3ccccc32)c2ccccc12")
"n"
>>> class_label("Cc1cccc(C(=O)NCCc2nc3ccccc3n2CCOc2ccccc2)c1")
"n"
>>> class_label("O=C(NCCc1nc2ccccc2[nH]1)c1ccc(Cl)c(Cl)c1")
"y"
>>> class_label("Cn1c(CCNC(=O)c2ccc(Cl)cc2)nc2ccccc21")
"n"
>>> class_label("Cc1ccc(C(=O)NCCc2nc3ccccc3[nH]2)cc1C")
"n"
>>> class_label("COc1ccc(NC(=O)CSc2nnc3c4cc(C)ccc4n(C)c3n2)cc1")
"n"
>>> class_label("O=C(Nc1ccc(F)c(Cl)c1)C1CC(=O)n2c(nc3ccccc32)N1 (configuration not stated)")
"y"
